Entries and their pKd
molecular target: human insulin receptor (HIR) (human, UniProt P06213 28-1382, limits assumed); assay: 125I-insulin competition, solubilised HIR
pKd: −log10 of the molar value. Non-standard residues stand in square brackets, D forms with d. No end group written: not given here. Tic = O=C(O)[C@@H]1Cc2ccccc2CN1; Ac6c = NC1(C(=O)O)CCCCC1
measure name: pKd

[
  {
    "binder": "SIEEEWAQIKCDVWGRCSESFYDWFERQL [S562]",
    "assay result": 10.74
  },
  {
    "binder": "GSLDESFYDWFERQLGK (N-terminal acetyl; POX (not explained) between G16 and K17) [S550]",
    "assay result": 7.40
  },
  {
    "binder": "LDQEWAQVQCEVYGRGCPSESFYDWFERQL [S533]",
    "assay result": 10.17
  },
  {
    "binder": "LDQEWAWVQCEVAGRGCPSESFYDWFERQL [S504]",
    "assay result": 7.89
  },
  {
    "binder": "SLEEEWAQIEEVWGRSESFYDWFERQLG [S572]",
    "assay result": 8.32
  },
  {
    "binder": "RLEEEWAWVQCEVYGRGCPSGSLDESFYDWFERQLG [S518]",
    "assay result": 9.80
  },
  {
    "binder": "SLEEEWAQIQCEVWGRCSESFYDWFERQL [S564]",
    "assay result": 10.89
  },
  {
    "binder": "H[Ac6c]CAQE[dW]GSEL[Tic]QCSGSESFYDWFERQL (not fully specified (bridges); printed as H-Acy-CAQEwGSEL-Tic-QCSGSESFYDWFERQL; cysteine pairing not given here, leading H- read as His; it may mean a free N-terminus) [S527]",
    "assay result": 8.62
  },
  {
    "binder": "WLDQEWAWVQCEVYGRGCPSGGSGGSSQAGSAFYAWFDQVLRTV [S512]",
    "assay result": 7.55
  },
  {
    "binder": "SLEEEWAQIEEVWGRGPSESFYDWFERQLG (label printed as 3569; also called 3569) [S569]",
    "assay result": 9.82
  },
  {
    "binder": "SLEEEWAWVECEVYGRGCPSGSLDESFYDWFERQL [S532]",
    "assay result": 10.43
  },
  {
    "binder": "SLEEEWAQIECEVWGRGCPSY [S592]",
    "assay result": 8.77
  }
]

These data points were gathered from patent US20030236190A1.
